system: LOVO cells; test: LOVO CTG proliferation assay (120 h) (CRC, G13D); type: cell-based; conditions: Homo sapiens, CTG 120 h
Param label: returns met when IC50 < 50 nM, returns not met otherwise, including exact equality.

Field: example entries. Status: answers known.
{"columns": ["COMPOUND_STRUCTURE_STRING", "CATEGORY_LABEL"],
 "data": [
  ["C[C@H](Oc1cc(N2CCNC3(COC3)C2)nc(-c2onc3c2CCC[C@@]32CCCc3sc(N)c(C#N)c32)n1)[C@@H]1CCCN1C", "not met"],
  ["C[C@H](Oc1cc(N2C[C@@H](N(C)C)[C@@H](O)C2)nc(-c2noc3c2CCC[C@@]32CCCc3sc(N)c(C#N)c32)n1)[C@@H]1CCCN1C", "not met"],
  ["CC(C)N1CCCN(c2cc(-n3ccnc3)nc(-c3noc4c3CCC[C@@]43CCCc4sc(N)c(C#N)c43)n2)[C@@H](C)C1", "not met"],
  ["C[C@H](Oc1cc(-n2ccnc2)nc(-c2noc3c2CCC[C@@]32CCCc3sc(N)c(C#N)c32)n1)[C@@H]1CCCN1C", "not met"],
  ["C[C@H](Oc1cc(N2CCNC3(CC3)C2)nc(-c2onc3c2CCC[C@@]32CCCc3sc(N)c(C#N)c32)n1)[C@@H]1CCCN1C", "not met"]
]}

Challenge: Consider the compound C[C@H](Oc1cc(-n2ccncc2=O)nc(-c2noc3c2CCC[C@@]32CCCc3sc(N)c(C#N)c32)n1)[C@@H]1CCCN1C . Is its IC50 strictly less than 50 nM?
Response given: met

Challenge: Consider the compound C[C@H](Oc1nc(-c2noc3c2CCC[C@@]32CCCc3sc(N)c(C#N)c32)nc(N2CCNC3(CC3)C2)c1F)[C@@H]1C[C@@H](F)CN1C . Is its IC50 strictly less than 50 nM?
Response given: not met

Challenge: Consider the compound CO[C@H]1CCN(C)[C@@H]1[C@H](C)Oc1cc(-n2ccc(C(=O)N[C@@H]3CCOC3)n2)nc(-c2noc3c2CCC[C@@]32CCCc3sc(N)c(C#N)c32)n1 . Is its IC50 strictly less than 50 nM?
Response given: met

Challenge: Consider the compound C[C@H](Oc1cc(-n2cc3ccn(C4CCOCC4)c(=O)c3n2)nc(-c2noc3c2CCC[C@@]32CCCc3sc(N)c(C#N)c32)n1)[C@@H]1CCCN1C . Is its IC50 strictly less than 50 nM?
Response given: met

Challenge: Consider the compound C[C@H](Oc1cc(-c2ccn(C3COC3)n2)nc(-c2onc3c2CCC[C@@]32CCCc3sc(N)c(C#N)c32)n1)[C@@H]1CCCN1C . Is its IC50 strictly less than 50 nM?
Response given: not met
